The measured values listed here are drawn from patent US8247211B2.

Form field: MIC Enterococcus faecalis (GC 4554) (one value per entry).
test system: Enterococcus sp.; assay: In vitro antibacterial evaluation: minimum inhibitory concentration (MIC), broth dilution method; type: cell-based; settings: broth dilution, inoculum 5×10^5 CFU/mL, 18 hours at 35° C.
Provide the reading as a plain figure in µg/mL.

CC(c1ccccc1)C1NC(=O)CNC(=O)C(CO)NC(=O)C(C(O)C2CNC(=N)N2C2OC(CO)C(O)C(O)C2O)NC(=O)C(C(O)C2CNC(=N)N2)NC(=O)C(Cc2ccc(OC3OC(CO)C(OC4OC5COC(c6ccc(-c7ccsc7)cc6)OC5C(O)C4O)C(O)C3O)cc2)NC1=O (stereo not drawn) = 16
CC(c1ccccc1)C1NC(=O)CNC(=O)C(CO)NC(=O)C(C(O)C2CNC(=N)N2C2OC(CO)C(O)C(O)C2O)NC(=O)C(C(O)C2CNC(=N)N2)NC(=O)C(Cc2ccc(OC3OC(CO)C(OC4OC5COC(c6ccc(C=Cc7ccccc7)cc6)OC5C(O)C4O)C(O)C3O)cc2)NC1=O (stereo not drawn) = 4
CC(c1ccccc1)C1NC(=O)CNC(=O)C(CO)NC(=O)C(CC2CNC(=N)N2C2OC(CO)C(O)C(O)C2O)NC(=O)C(CC2CNC(=N)N2)NC(=O)C(Cc2ccc(OC3OC(CO)C(OC4OC5COC(c6ccc(OCc7ccccc7)cc6)OC5C(O)C4O)C(O)C3O)cc2)NC1=O (stereo not drawn) = 16
CC(c1ccccc1)C1NC(=O)CNC(=O)C(CO)NC(=O)C(C(O)C2CNC(=N)N2C2OC(CO)C(O)C(O)C2O)NC(=O)C(C(O)C2CNC(=N)N2)NC(=O)C(Cc2ccc(OC3OC(CO)C(OC4OC5COC6(CCCCCCCCCCCC6)OC5C(O)C4O)C(O)C3O)cc2)NC1=O (stereo not drawn) = 32
N=C1NCC(C(O)C2NC(=O)C(Cc3ccc(OC4OC(CO)C(OC5OC6COC(Cc7ccccc7)OC6C(O)C5O)C(O)C4O)cc3)NC(=O)C(CC3CCCCC3)NC(=O)CNC(=O)C(CO)NC(=O)C(C(O)C3CNC(=N)N3C3OC(CO)C(O)C(O)C3O)NC2=O)N1 (stereo not drawn) = 4

Can you look up the measured MIC Enterococcus faecalis (GC 4554) of CC(c1ccccc1)C1NC(=O)CNC(=O)C(CO)NC(=O)C(C(O)C2CNC(=N)N2C2OC(CO)C(O)C(O)C2O)NC(=O)C(C(O)C2CNC(=N)N2)NC(=O)C(Cc2ccc(OC3OC(CO)C(OC4OC5COC(c6ccc(C(=O)c7cc(I)c(I)c(I)c7)cc6)OC5C(O)C4O)C(O)C3O)cc2)NC1=O (stereo not drawn) for me?
64

Can you look up the measured MIC Enterococcus faecalis (GC 4554) of N=C1NCC(C(O)C2NC(=O)C(Cc3ccc(OC4OC(CO)C(OC5OC6COC(CCc7ccccc7)OC6C(O)C5O)C(O)C4O)cc3)NC(=O)C(CC3CCCCC3)NC(=O)CNC(=O)C(CO)NC(=O)C(C(O)C3CNC(=N)N3C3OC(CO)C(O)C(O)C3O)NC2=O)N1 (stereo not drawn) for me?
1

Can you look up the measured MIC Enterococcus faecalis (GC 4554) of CC(c1ccccc1)C1NC(=O)CNC(=O)C(CO)NC(=O)C(C(O)C2CNC(=N)N2C2OC(CO)C(O)C(O)C2O)NC(=O)C(C(O)C2CNC(=N)N2)NC(=O)C(Cc2ccc(OC3OC(CO)C(OC4OC5COC6(CCSCC6)OC5C(O)C4O)C(O)C3O)cc2)NC1=O (stereo not drawn) for me?
32

Can you look up the measured MIC Enterococcus faecalis (GC 4554) of CC(c1ccccc1)C1NC(=O)CNC(=O)C(CO)NC(=O)C(C(O)C2CNC(=N)N2C2OC(CO)C(O)C(O)C2O)NC(=O)C(C(O)C2CNC(=N)N2)NC(=O)C(Cc2ccc(OC3OC(CO)C(OC4OC5COC6(OC5C(O)C4O)C4CCCC6CCC4)C(O)C3O)cc2)NC1=O (stereo not drawn) for me?
8

Can you look up the measured MIC Enterococcus faecalis (GC 4554) of CC(c1ccccc1)C1NC(=O)CNC(=O)C(CO)NC(=O)C(C(O)C2CNC(=N)N2C2OC(CO)C(O)C(O)C2O)NC(=O)C(C(O)C2CNC(=N)N2)NC(=O)C(Cc2ccc(OC3OC(CO)C(OC4OC(CO)C(OCc5ccc(OCc6ccccc6)cc5)C(O)C4O)C(O)C3O)cc2)NC1=O (stereo not drawn) [Example 231a] for me?
4
